Attribute: GI50
- Test system: HOP-62
- Test method notes: NCI tumour cell line growth inhibition, 48 h
Calls of active or inactive are those of the source. Cut-off read from the data, not from the text of the source: active = GI50 up to about 1.1 µM and inactive = higher.

Known results for compounds:
Q: For the compound CC1=C(C(=O)Nc2ccccc2)C(c2ccc(C(C)C)cc2)C(C(=O)Nc2ccccc2)=C(C)N1 , give its measured GI50 value.
Ans: 25.3 µM (inactive)

Q: Consider the compound CC1(C)c2ccccc2N2C(c3ccccc3)=NOC21C (centres undefined) and give its recorded GI50.
Ans: > 100 µM (inactive)

Q: Give the reported GI50 for this compound. CC(C)N(C(=O)C12C3C4C5(C(=O)O)C(C1C35I)C42C(=O)O)C(C)C (centres undefined)
Ans: > 100 µM (inactive)

Q: Look up and report measured GI50 for this entry: Cc1cc(-c2ccc(C(=O)C(Cl)(Cl)Cl)[nH]2)on1
Ans: 11.4 µM (inactive)

Q: Return GI50 for the following compound: OC1(c2ccc(Cl)cc2)c2c(c3ccccc3c3ccccc23)C2=NCCN21 (centres undefined)
Ans: 11.3 µM (inactive)

Q: # return recorded GI50 for entry Cc1cc(NS(=O)(=O)c2ccc(/N=[N+](\[O-])c3ccc(S(=O)(=O)Nc4cc(C)on4)cc3)cc2)no1
Ans: > 100 µM (inactive)

Q: Return the recorded GI50 value; entry: O=C(c1c(F)c(F)c(F)c(F)c1F)n1c(O)nc2ccccc21
Ans: 17.2 µM (inactive)

Q: # return recorded GI50 for entry COc1cc2c(cc1O)C1C(O)C(O)C=C3CCN(C2)C31 (centres undefined)
Ans: 2.92 µM (inactive)

***
Q: Output measured GI50 for this item: Cc1nc2c(O)cccc2c(=O)[nH]1
Ans: 437 µM (inactive)

Reference source for all entries: ChEMBL document CHEMBL1201862
